Exercise: for every item that follows, state its recorded A450.
- SYSTEM_NAME: T1, Human Id3: Histidine (human, UniProt Q02535 1-119 at identity 1.00))
- T1 construct: Fusion protein made in E. coli from vector pGW07; also called h-Id3: His; Human Id3 (coated wells); not shown: His tag
- T1 chain: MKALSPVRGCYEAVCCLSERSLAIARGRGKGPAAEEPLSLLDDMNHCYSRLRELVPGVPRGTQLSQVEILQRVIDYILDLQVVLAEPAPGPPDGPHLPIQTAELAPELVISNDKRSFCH
- ASSAY_INFO: ELISA, Ab 0.250 µg/ml
Numeric answer only, unit A450 assumed.

Item under review: rabbit monoclonal anti-mouse/human Id3, clone #BCH-4/#16-1 (antibody, V domains shown, Rabbit IgG from a rabbit hybridoma; also called m/h Id3 MoAb 16-1) VH: QSVEESGGRLVTPGTPLTLTCTASGFSLSSYYIHWVRQAPGKALEWIGYISDGGTTYYASWAKGRFTISKTSSTTVDLKMTSLTTEDTATYFCARQGFNIWGPGTLVTVSL VL: AVLTQTPSPVSAAVGGTVTISCQSSQSVYNNNWLSWFQQKSGQPPKLLIYETSKLESGVPSRFKGSGSGTQFTLTIIDVQCDDAATYYCLGGYWTTSDNNIFGGGTEVVVK . Reported A450?
2.83

Item under review: rabbit monoclonal anti-mouse/human Id3, clone #BCH-4/#42-1 (antibody, V domains shown, Rabbit IgG from a rabbit hybridoma; also called m/h Id3 MoAb 42-1) VH: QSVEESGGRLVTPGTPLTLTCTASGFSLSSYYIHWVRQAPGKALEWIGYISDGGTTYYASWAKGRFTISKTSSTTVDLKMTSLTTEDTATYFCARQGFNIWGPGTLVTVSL VL: AVLTQTPSPVSAAVGGTVTISCQSSQSVYNNNWLSWFQQKSGQPPKLLIYETSKLESGVPSRFKGSGSGTQFTLTIIDVQCDDAATYYCLGGYWSTSDNNIFGGGTEVVVK . Reported A450?
3.31

Item under review: rabbit monoclonal anti-mouse/human Id3, clone #BCH-4/#17-3 (antibody, V domains shown, Rabbit IgG from a rabbit hybridoma; also called m/h Id3 MoAb 17-3; BCH-3/#17-3) VH: QSVEESGGRLVTPGTPLTLTCTASGFSLSNVYIHWVRQAPGKGLEWIGYISDGDTARYATWAKGRFTISKTSSTTVNLKMTSLTTEDTATYFCARQGFNIWGPGTLVTVSL VL: AVLTQTPSPVSAAVGGTVSISCQSSQSVWNNNWLSWFQQKPGQPPKLLIYETSKLESGVPSRFKGSGSGTQFTLTISDVQCDDAATYYCLGGYWTTSDNNVFGGGTEVVVK . Reported A450?
3.32

Item under review: rabbit monoclonal anti-mouse/human Id3, clone #BCH-4/#6-1 (antibody, V domains shown, Rabbit IgG from a rabbit hybridoma; also called m/h Id3 MoAb 6-1) VH: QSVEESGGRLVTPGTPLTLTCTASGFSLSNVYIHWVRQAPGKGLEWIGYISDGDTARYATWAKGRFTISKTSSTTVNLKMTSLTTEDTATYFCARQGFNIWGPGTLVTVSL VL: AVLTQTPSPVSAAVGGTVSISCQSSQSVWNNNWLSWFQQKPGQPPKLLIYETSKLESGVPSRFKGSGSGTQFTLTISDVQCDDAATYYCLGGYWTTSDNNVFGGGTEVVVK . Reported A450?
3.02
